biological target: bradykinin 1 receptor (B1R) of the rat (Rattus norvegicus, UniProt P97583); construct: expressed in transfected cells; host or cells: CHO K1 cells; test: Functional investigation on the rat bradykinin 1 receptor (B1R), Ca2+ FLIPR assay in CHO K1 rB1R cells; format: cell-based; details: CHO-K1, B1R antagonism rat; test substance 10 μM; Ca2+ FLIPR, CHO K1 rB1R cells; read-out: B1R Ant. r [10 μM] % Inhibition
Decision: inhibition at 10 µM compared against 20%; not below it gives satisfied, below it gives not satisfied.

Recorded results for 6 compounds are shown here.
COc1ccc(S(=O)(=O)N2CCC(OCC(=O)NCC3CCC(C(c4cccc(F)c4)N(C)C)CC3)C2)cc1OC (stereo not shown) [Example 184] :: satisfied
O=C(COC1CCN(S(=O)(=O)c2c(Cl)cc(Cl)cc2Cl)C1)NC1CCC(C(CCc2ccccc2)N2CCCCC2)CC1 (stereo not shown) [Example 667] :: not satisfied
CN1CCN(C(c2ccccc2)C2CCC(NC(=O)COCC3CCCN3S(=O)(=O)c3c(Cl)cc(Cl)cc3Cl)CC2)CC1 (stereo not shown) [Example 732] :: satisfied
CN(C)C(c1cccc(F)c1)C1CCC(CNC(=O)CNC(=O)c2nc(CS(=O)(=O)c3ccccc3)no2)CC1 (stereo not shown) [Example 781] :: not satisfied
CN(C)C(c1cccc(F)c1)C1CCC(CNC(=O)COCCN(C)S(=O)(=O)c2c(Cl)cc(Cl)cc2Cl)CC1 (stereo not shown) [Example 188] :: not satisfied
CN(C)C(c1cccs1)C1CCC(CCNC(=O)COC2CCN(S(=O)(=O)c3ccc(Cl)cc3Cl)C2)CC1 (stereo not shown) [Example 21] :: satisfied

Please examine the following record next.
// query # check: inhibition at 10 µM of CN(C)C(c1cccs1)C1CCC(CNC(=O)COC2CCN(S(=O)(=O)c3ccc(F)cc3)C2)CC1 (stereo not shown) [Example 97] is greater than or equal to 20%
// result satisfied

----------
Target: bradykinin 1 receptor (B1R) of the rat (Rattus norvegicus)
Construct: expressed in transfected cells; host or cells: CHO K1 cells
Sequence (P97583 1-337): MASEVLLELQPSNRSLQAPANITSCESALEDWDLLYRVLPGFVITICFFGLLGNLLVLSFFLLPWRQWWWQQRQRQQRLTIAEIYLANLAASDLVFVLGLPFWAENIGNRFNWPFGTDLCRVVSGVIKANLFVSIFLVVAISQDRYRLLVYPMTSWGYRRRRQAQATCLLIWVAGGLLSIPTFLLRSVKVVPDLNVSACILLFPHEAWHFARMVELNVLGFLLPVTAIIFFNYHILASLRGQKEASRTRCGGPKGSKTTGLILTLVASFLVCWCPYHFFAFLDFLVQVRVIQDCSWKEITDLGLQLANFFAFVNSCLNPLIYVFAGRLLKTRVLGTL
Assay: Functional investigation on the rat bradykinin 1 receptor (B1R), Ca2+ FLIPR assay in CHO K1 rB1R cells
Type: cell-based
Settings: CHO-K1, B1R antagonism rat; test substance 10 μM; % inhibition compared with the maximum achievable inhibition; read-out: B1R Ant. r [10 μM] % Inhibition
Below: a set of entries, each annotated with reported inhibition at 10 µM.
# value in %; strip the unit string

Look over these answered cases.
CN1CCN(C(Cc2ccccc2)C2CCN(C(=O)COCC3CCc4ccccc4N3S(=O)(=O)c3ccc(Cl)c(Cl)c3)CC2)CC1 (stereo not shown) :: 98
COc1cc(C)c(S(=O)(=O)N2CCCCC2COCC(=O)N2CCC(C(Cc3ccccc3)N3CCN(C)CC3)CC2)c(C)c1 (stereo not shown) :: 97
CN1CCN(C(CCc2ccccc2)C2CCN(C(=O)COCC3CCc4ccccc4N3S(=O)(=O)c3ccc(Cl)c(Cl)c3)CC2)CC1 (stereo not shown) :: 96

Please find the next molecule below.
// query inhibition at 10 µM of COc1cc(C)c(S(=O)(=O)N2CCCCC2COCC(=O)N2CCC(C(c3ccc(F)cc3)N3CCN(C)CC3)CC2)c(C)c1 (stereo not shown) on bradykinin 1 receptor (B1R) of the rat (Rattus norvegicus)?
// result 99
